molecular target: hAChE (human acetylcholinesterase) (Homo sapiens); construct: gene ACHE; assay: Ellman assay, […] nm; format: biochemical; settings: read-out: hAChE
Sequence (P22303 32-614): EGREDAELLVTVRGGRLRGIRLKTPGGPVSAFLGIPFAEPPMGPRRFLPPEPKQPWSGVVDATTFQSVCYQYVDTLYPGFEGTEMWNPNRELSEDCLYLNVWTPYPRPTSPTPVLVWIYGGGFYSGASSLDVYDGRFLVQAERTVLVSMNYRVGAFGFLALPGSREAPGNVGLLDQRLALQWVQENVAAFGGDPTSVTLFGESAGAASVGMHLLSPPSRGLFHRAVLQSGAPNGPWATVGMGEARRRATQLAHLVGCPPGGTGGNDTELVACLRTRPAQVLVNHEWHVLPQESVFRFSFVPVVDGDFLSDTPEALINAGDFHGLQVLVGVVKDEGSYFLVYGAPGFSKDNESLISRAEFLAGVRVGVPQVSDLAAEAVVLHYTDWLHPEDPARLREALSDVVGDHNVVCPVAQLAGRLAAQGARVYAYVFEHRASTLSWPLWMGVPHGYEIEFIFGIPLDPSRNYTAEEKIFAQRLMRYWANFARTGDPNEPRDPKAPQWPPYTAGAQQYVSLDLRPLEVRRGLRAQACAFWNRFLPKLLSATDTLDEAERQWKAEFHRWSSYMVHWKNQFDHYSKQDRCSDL
MEASURED_PARAMETER: IC50 (µM)
Give bare numbers, in µM.

COMPOUND	UNIT_TAG	VAL
O=C(F)N1CCc2ccccc21 [3d, Indoline-1-carbonyl Fluoride]	µM	4.62

For each of the items listed, what is its IC50?
1. CN(C(=O)F)c1cccc2cc[nH]c12 [3k, (1H-Indol-7-yl)(methyl)carbamic Fluoride]
2. O=C(F)N(Cc1ccccc1)Cc1ccccc1 [3b, Dibenzylcarbamic Fluoride]

Ans:
[0.151, 2.2]

Please state, for each entry, its recorded IC50.
1. O=C(F)N1Cc2ccccc2C1 [3e, Isoindoline-2-carbonyl Fluoride]
2. O=C(F)N1CCc2ccccc2C1 [3f]
3. O=C(F)N1CCC(Cc2ccccc2)CC1 [3g, 4-Benzylpiperidine-1-carbonyl Fluoride]
4. CN(Cc1ccccc1)C(=O)F [3a, Benzyl(methyl)carbamic Fluoride]

Ans:
1: 103; 2: 22.6; 3: 0.554; 4: 5.65
